meta.source: PubChem BioAssay AID651812

Test: qHTS for inhibitors of Vif-A3G interactions: Cherry picks; note: nearly all actives have a fitted effect of over 80% in size; note: potency is the fitted concentration of half-maximal effect
Conditions: HeLa A3G-eYFP + Vif, 24 h; eYFP fluorescence increase; series mostly up to 36.9 µM
Among all 2,100 compounds or so, about 650 (31%) were called active. Inconclusive results (about 16%) are left out. This is one part of the list.
measuredMetric: Potency

The examples below pair each entry with its known result.
CCC(=C/c1sc2ccc3ccccc3c2[n+]1C)/C=C1\Sc2ccc3ccccc3c2N1C : inactive
Cc1ccc(S(=O)(=O)Nc2cc(-c3nn(C)c(=O)c4ccccc34)ccc2N2CCOCC2)cc1 : inactive
COc1ccc(/C=c2\s/c(=C/C(=O)c3ccc(C)cc3)[nH]c2=O)c(OC)c1 : 20.6 µM (active)
O=C(/C=C/c1ccco1)NC(=S)Nc1ccc(N2CCCC2)cc1 : inactive
Cc1ccc(C(=O)c2cc([N+](=O)[O-])ccc2N2CCOCC2)cc1C : inactive

Sample Cc1ccc2c(c1C)NC(=O)CC(c1ccccc1O)=N2 ; Potency observed: inactive

Documented Potency of Cc1cccc(-n2c(N)c(-c3nc4ccccc4n3C)c3nc4ccccc4nc32)c1 : inactive

# Potency of CCSc1nc2ccccc2n1C(=O)/C=C/c1ccc(OC)c(OC)c1 = inactive

Please fill in: Potency reported for COc1ccccc1NS(=O)(=O)c1cc([N+](=O)[O-])ccc1N/N=C/c1sc(N2CCOCC2)nc1-c1ccccc1 = 2.06 µM (active)

The molecule identified as CC(C)c1ccc(C(=O)NCCCNC(=O)c2cnccn2)cc1 registered its Potency at inactive

---

Assay: qHTS for inhibitors of Vif-A3G interactions: Cherry picks; note: nearly all actives have a fitted effect of over 80% in size
Details: HeLa A3G-eYFP + Vif, 24 h; eYFP fluorescence increase; series mostly up to 36.9 µM
In all, about 2,100 compounds went through this assay and about 650 (31%) were called active. Another 16% or so got no clear call; they are omitted. The call rests on the fitted dose curve; in most records, active means well fitted inhibition curve with a large enough effect; inconclusive means small, poorly fitted or top-dose-only effect; inactive means flat fitted curve, though single readings scatter. This is one part of the list.
Select the correct class. Options are True = active, False = inactive and nothing else.

Query: recorded result category for COc1ccc(S(=O)(=O)Nc2cccc(-c3ccc4nncn4n3)c2)cc1 in this test False

# lookup: test call for O=C(NCc1ccccc1)c1cccc2c1C(=O)c1ccc(/C=C/c3ccccc3)cc1S2(=O)=O True

Outcome? S=c1[nH]nc(-c2cccnc2)n1/N=C/C(Cl)=C\c1ccccc1 False

Please share the test call associated with CCCOc1ccc2cc(C(=O)NCc3ccccc3)c(=O)oc2c1 . False

Assay outcome for Cc1ccc(CNC(=O)c2cccc3c2C(=O)c2ccc(N4CCC(C)CC4)cc2S3(=O)=O)cc1 : what was it? True

What classification did CCC(=O)NC(c1ccc(OC)cc1)c1c(O)ccc2ccccc12 (stereo unspecified) end up with in this test? False

// return assay outcome for COc1ccc(N=Cc2oc3ccc4ccccc4c3c2O)cc1 True

---

Assay: qHTS for inhibitors of Vif-A3G interactions: Cherry picks; note: nearly all actives have a fitted effect of over 80% in size
Conditions: HeLa A3G-eYFP + Vif, 24 h; eYFP fluorescence increase; series mostly up to 36.9 µM
Hit rate of the full screen: of about 2,100 compounds, about 650 (31%) were called active. Another 16% or so got no clear call; they are omitted. Calls follow the shape of the dose curve; as a rule, active = well fitted inhibition curve with a large enough effect; inconclusive = small, poorly fitted or top-dose-only effect; inactive = flat fitted curve, though single readings scatter. The list shows a part of the results.
Write down the outcome that applies. Available outcomes: 1 (yes) = active, 0 (no) = inactive

O=C(NCc1ccccc1)C1Cc2c(-c3ccc(Cl)cc3)ccnc2O1 (stereo not given) : 0 (no)
Cn1c(-c2ccccc2)cc2c3no[n+]([O-])c3ccc21 : 0 (no)
COc1ccc(-c2nnc(SCC(=O)NCc3ccccc3)nc2-c2ccc(OC)c(OC)c2)cc1OC : 0 (no)
COC(=O)c1[nH]c2c(c1C(=O)OC)CCc1ccccc1-2 : 0 (no)
CCN1/C(=C/C=C2/SC(=Nc3cccc4ncccc34)N(C)C2=O)Sc2ccccc21 : 1 (yes)

GET /call?item= C=C(/C=C/c1ccc(N(C)C)cc1)c1nc2ccccc2s1 returns the recorded outcome of this test. 1 (yes)

Test call for this compound, please: CN(C)c1ccc(C2C=C(c3ccc(Cl)cc3OC(F)F)Nc3ncnn32)cc1 (stereo not given) 0 (no)

Assay outcome for CC(C)n1cc(NC(=O)c2cc(-c3ccccc3)on2)cn1 : what was it? 0 (no)

Hi, do you know how CCn1c(CNC(=O)c2cc(OC)c(OC)c(OC)c2)cc2cc(C)ccc21 came out in this test? 0 (no)

// return assay outcome for COc1ccc(-c2ccc3c(c2)S(=O)(=O)c2cccc(C(=O)NCCOc4ccccc4)c2C3=O)cc1OC 1 (yes)

---

Assay: qHTS for inhibitors of Vif-A3G interactions: Cherry picks; note: nearly all actives have a fitted effect of over 80% in size
Details: HeLa A3G-eYFP + Vif, 24 h; eYFP fluorescence increase; series mostly up to 36.9 µM
Hit rate of the full screen: of about 2,100 compounds, about 650 (31%) were called active. Another 16% or so got no clear call; they are omitted. Calls come from the whole dose curve; as a rule, active = well fitted inhibition curve with a large enough effect; inconclusive = small, poorly fitted or top-dose-only effect; inactive = flat fitted curve, though single readings scatter. The list shows a part of the results.
One label from this list, please: true for active, false for inactive

N#CC1=C(N)Oc2ccc3ccccc3c2C1c1cccnc1 (stereo unspecified) : false
Cc1cc(C)cc(NC(=S)NC(=O)C2CC2)c1 : false
COc1ccc(-c2cnc3c(NC=O)cc(-c4ccoc4)cn23)cc1OC : false
COc1cc(/C=C2\SC(=S)N(Nc3ncc(C(F)(F)F)cc3Cl)C2=O)ccc1O : true
CCOc1ncccc1C(=O)NCc1ccc(OC)cc1 : false
Cc1cc(C)cc(NC(=O)Cn2cc(C(=O)C3CCCCC3)c3ccccc32)c1 : true

Test call for this compound, please: N#CC1=C(N)Oc2cc(N)ccc2C1c1cccc(Br)c1 (stereo unspecified) false

Tell me the recorded outcome of this test for O=C(NNc1ncc(C(F)(F)F)cc1Cl)c1c(Cl)cccc1Cl . false

Could you check what this test reported for O=C(CN1c2cccc3cccc(c23)S1(=O)=O)Nc1ccc(S(=O)(=O)N2CCOCC2)cc1 ? false

So what was the verdict on O=C(NCc1ccco1)C1Cc2c(-c3cccc(F)c3)ccnc2O1 (stereo unspecified) in this test? false

Dear colleague, could you share the recorded outcome for COc1ccc(-c2cc(NC=O)c3ncc(-c4cccc(C(F)(F)F)c4)n3c2)cc1OC when you have a moment? false

---

Assay: qHTS for inhibitors of Vif-A3G interactions: Cherry picks; note: nearly all actives have a fitted effect of over 80% in size; note: potency is the fitted concentration of half-maximal effect
Conditions: HeLa A3G-eYFP + Vif (tagged APOBEC3G with the HIV-1 protein that degrades it), 24 h; eYFP fluorescence increase; series mostly up to 36.9 µM
The whole screen tested about 2,100 compounds, of which about 650 (31%) were called active. About 16% were inconclusive and are not listed. Some of the results follow.
measuredMetric: Potency

Below, 8 compounds whose answers are already recorded.
CN(C)CCCNc1cc(N2CCN(C3CCCCC3)CC2)c2noc3c2c1C(=O)c1ccccc1-3 : 20.6 µM (active)
O=C(O)CSc1c2ccccc2cc2ccccc12 : inactive
COc1cc(C(=O)Nc2ccc3ccccc3c2)cc(OC)c1OC : inactive
C[n+]1ccc(/C=C/c2c[nH]c3ccc(F)cc23)cc1 : 14.6 µM (active)
COc1ccc(NC(=O)C2(C)Cc3c(-c4cccc(C(N)=O)c4)ccnc3O2)cn1 (centres undefined) : inactive
COc1cc(/C=C/C(=O)c2ccc([N+](=O)[O-])o2)ccc1O : inactive
CCc1c(C)nc(SCC(=O)c2cccs2)c(C#N)c1C : inactive
CC1=NN(c2ccccc2)C(=O)/C1=C/C=C/c1ccccc1 : inactive

Entry c1ccc(-c2cnn3c(-c4ccccc4)c(-c4ccccc4)nc3n2)cc1 — recorded Potency = 3.66 µM (active)

Lookup result for COc1ccc(-n2c(O)c(/C=N/NS(=O)(=O)c3cc(C)ccc3C)c3ccccc3c2=O)cc1OC ; measured Potency: 16.4 µM (active)

Form field Potency, entry Cc1ccc(C(=O)c2cc([N+](=O)[O-])ccc2N2CCN(C)CC2)cc1 : inactive

Entry N#CCc1ccc(NC(=O)/C=C/c2ccc([N+](=O)[O-])o2)cc1 , Potency reported as 8.2 µM (active)

The compound listed as COc1ccc2nc3ccccc3nc2c1NC(=O)c1ccc(Cl)cc1Cl shows Potency equal to 2.8 µM (active)

Looking up CC(C)COc1ccc(C(=O)N/C(=C/c2cccc([N+](=O)[O-])c2)C(=O)O)cc1 , I see its Potency listed as inactive

Given item COc1ccc(N2C(=O)CC(Sc3nc(C)c4c(n3)CCCC4)C2=O)cc1 (centres undefined) , the value recorded as its Potency is inactive

Note to self: Potency recorded for O=C1S/C(=C/c2ccc(N3CCOCC3)o2)C(=O)N1Cc1c(F)cccc1Cl was 4.44 µM (active)

Potency reading for Cc1ccc2[nH]cc(/C=C/c3cc[n+](C)cc3)c2c1 : 4.44 µM (active)

Briefly, Potency measured for CCNc1cc(N2CCN(C3CCCCC3)CC2)c2noc3c2c1C(=O)c1ccccc1-3 : 16.4 µM (active)

GET /value?item= O=C(/C=C/c1ccc(Cl)cc1)c1ccc([N+](=O)[O-])o1 &field=Potency returns inactive

The recorded Potency for CC1(C)Cc2c(sc3ncnc(NNC(=S)NCc4ccccc4)c23)CO1 is inactive

Potency recorded for this compound, COc1ccc(-n2c(O)c(/C=N/NS(=O)(=O)c3ccc(C)cc3)c3ccccc3c2=O)cc1OC , is 18.4 µM (active)

Value of Potency reported for the compound CCOC(=O)CN1C(=O)S/C(=C/c2ccc(N3CCCCC3)o2)C1=O is 5.8 µM (active)

Reported Potency ( C=CCOc1ccc2nc(NC(=O)OC)[nH]c2c1 ) = inactive

Recorded Potency (compound O=C(NC(=S)N1CCc2ccccc21)c1ccco1 ): inactive

Input N#Cc1c(NC(=O)/C=C/C(=O)O)sc2c1CCN(Cc1ccccc1)C2 . Output Potency: inactive

Memo: COc1ccc(C2=NOC(C(=O)NCc3ccc(F)cc3)C2)cc1OC (centres undefined) , reported Potency: inactive

Per the record, Cc1ccc2nc(C)c(C(=O)NN=C3CCCCCC3)n2c1 has Potency of inactive

Reported Potency of O=C(NCc1cccnc1)c1ccc([N+](=O)[O-])o1 : inactive

Quick note, Potency for CCC(C)n1c(NC(=O)c2ccccc2)c(C#N)c2nc3ccccc3nc21 (centres undefined) landed at 18.4 µM (active)
